Test system: NB-4
ASSAY_PROCEDURE: Cytotoxicity against human NB4 cells assessed as growth inhibition at 0.5 uM after 96 hrs by hemocytometry relative to control
Format: functional
STUDY_CONDITIONS: NB-4, 96 h, read-out: GI
The entries below are paired with their reported inhibition of growth at 0.5 µM.
Record the value in %, omitting the unit from your answer.

Some compounds with known inhibition of growth at 0.5 µM results, for comparison:
> print(dat)
                                   compound  quantity.unit  observed.measurement
1  Cc1oc(C(C)(C)C)cc1C(=O)NC(Cc1ccccc1)C(=O)O (stereo not given)              %                  12.8
2  CC1=CC(=O)OC2C=C(OCCOc3ccc(C(C)(C)C)cc3)C=CC12 (stereo not given)              %                  14.4
3  O=C(CCN1C(=O)c2ccccc2C1=O)Nc1cc(Cl)ccc1C(=O)O              %                  13.8
4  Clc1cccc(C(c2ccc3[nH]cnc3c2)n2ccnc2)c1 (stereo not given)              %                  14.5
5      O=C(CCN1C(=O)c2ccccc2C1=O)NCc1ccncc1              %                  14.2
6       Cc1cc(O)nc(SCC(=O)c2ccc(O)c(O)c2)n1              %                  19.3

What does the data say about its inhibition of growth at 0.5 µM? Entry: "O=C(O)c1ccc(COc2ccc(/C=C3\SC(=O)N(c4cccc(Cl)c4)C3=O)cc2)cc1" 18.6

Same again, this time with "CC(=O)Nc1ccc(C(=O)Nc2ccc(OCC(=O)O)cc2)cc1" 7.8

Same again, this time with "O=C(Nc1ccncc1)c1cc(-c2ccc(Br)cc2)nc2ccccc12" 20.2

Same again, this time with "Cc1cccc(-c2nc3cc(/N=C/c4c(C)cc(O)cc4O)ccc3o2)c1" 25.8
